Recorded MIC values (Cryptococcus neoformans var. grubii ATCC 208821) are given below.

smiles input	MIC
CC(C)CCc1cn(-c2c(OCC(=O)N[C@H](CCCCN)C(=O)N[C@H](CCCNC(=N)N)Cn3cc(C4CCCCC4)nn3)ccc3ccccc23)nn1.Cl.Cl	4 to 8 µg/mL
CC(C)CCc1cnnn1-c1c(OCC(=O)N[C@H](CCCNC(=N)N)Cn2cc(Cc3ccccc3)nn2)ccc2ccccc12.Cl	> 32 µg/mL

Attention now turns to another entry.
## Input Could you share what MIC was measured for `CC(C)CCOc1ccccc1-n1nncc1COCC(=O)N[C@H](CCCCN)C(=O)N[C@H](CCCNC(=N)N)Cn1cc(CC2CCCCC2)nn1` , tested on Cryptococcus neoformans var. grubii ATCC 208821?
## Output > 32 µg/mL
